The entries that follow carry IC50 values tested on ASK1 (Homo sapiens (Human)), drawn from several published reports.

For reference, reported IC50 for O=C(Nc1cccc2c1OCC1(CC1)n1nnnc1-2)c1cc(-n2cnc(C3CC3)c2)c(N2CCOCC2)cn1 stands at 6 nM

So for C[C@H](CO)n1nnnc1-c1cccc(NC(=O)c2cc3c(cn2)CCN(C(=O)N(C)C)C3)n1 , the logged IC50 turned out to be 1 to 10 nM

Next:
Lookup result for CCOC(=O)N1CCc2cc(F)c(C(=O)Nc3cccc(-c4nncn4[C@@H](C)CF)n3)cc2C1 ; measured IC50: 1.25 to 10 nM

# IC50 of Cc1cc(F)c(C(=O)Nc2cccc(-c3nnnn3C3CC3)n2)cc1-n1cnc(C2CC2)c1 = 1 to 10 nM

Entry C[C@H](CO)n1nnnc1-c1cccc(NC(=O)c2cc(-c3cnn(C4CC4)c3)c(C(F)F)cn2)n1 ; IC50 = 1 to 10 nM

COCCNc1ccc2ccc(C(=O)Nc3cccc(-c4nncn4C(C)C)n3)cc2n1 yielded IC50 of 10 to 100 nM

Lab book: IC50 of CC(=O)OC[C@@H](C)n1nnnc1-c1cccc(N2Cc3ccc(-n4cnc(C5CC5)c4)cc3C2=O)n1 noted as 100 to 1000 nM

For Cc1cc(C)cc(-c2ccc(C(=O)Nc3cccc(-c4nncn4C(C)C)n3)[nH]2)c1 the compound record lists IC50 as 8.5 nM

Per the records, this compound ( C[C@H](CO)n1nnnc1-c1cccc(NC(=O)c2cc3c(cn2)CCN(C)C3)n1 ) has IC50 equal to 1 to 10 nM

Form field IC50, entry Cc1cc(F)c(C(=O)Nc2cccc(-c3nncn3C(C)C)n2)cc1C1CC1NC(=O)N1CCC(F)(F)C1 (stereo not drawn) : > 10 nM

IC50 for CCN(CC)C(=O)N1CCc2cc(F)c(C(=O)Nc3cccc(-c4nncn4C(C)C)n3)cc2C1 is 1 to 10 nM

The compound COc1cc2c(cc1C(=O)Nc1cccc(-c3nnnn3[C@H](C)CO)n1)S(=O)(=O)N(C(C)C)C2 showed IC50 equal to < 1.5 nM

So, C[C@H](CO)n1nnnc1-c1cccc(NC(=O)c2cc3c(cn2)CCN(c2ncccn2)C3)n1 ? Its IC50 was 1.25 to 10 nM

----------
pIC50: −log10 of the molar value.
Literature compilation of pIC50 measurements on ASK1 (Homo sapiens (Human)).

Below, each entry is followed by its recorded pIC50 result.
Lab note: molecule CC1c2cc(C(=O)Nc3cccc(-c4nnnn4C(C)C)n3)c(F)cc2CCN1CC(=O)N1CCCC1 (centres unmarked) tested on ASK1 (Homo sapiens (Human)); recorded pIC50 was 6.00 to 7.00

Short answer on ASK1 (Homo sapiens (Human)) for CCCN1CCc2cnc(C(=O)Nc3cccc(-c4nnnn4[C@H](C)CO)n3)cc2C1 , pIC50: 8.00 to 9.00

Entry Cc1nc(-c2cc(C(=O)Nc3cccc(-c4nnnn4C(C)C)n3)c(F)cc2C)cs1 : pIC50 on ASK1 (Homo sapiens (Human)) = 6.00 to 7.00

Others:
Entry O=C1CN(C(=O)c2ccc3c(c2)CN(c2cccc(-c4nncn4C4CC4)n2)C3=O)CCN1 ; assay system ASK1 (Homo sapiens (Human)); pIC50 recorded at > 6.70

pIC50 value, target or system ASK1 (Homo sapiens (Human)), for CC(C)n1cnnc1-c1cccc(NC(=O)c2cc3cc(Br)ccc3cn2)n1 : 8.00 to 9.00

Sample C[C@H](CO)n1nnnc1-c1cccc(NC(=O)c2cc3c(cn2)CCN(S(=O)(=O)CCC(F)(F)F)C3)n1 , system: ASK1 (Homo sapiens (Human)). Its pIC50 is 8.00 to 9.00

Fill in: ASK1 (Homo sapiens (Human)) pIC50 for Cc1cc(F)c(C(=O)Nc2cccc3c2OCCn2nnnc2-3)cc1-n1cnc(C2CC2)c1 = 8.18

Response field pIC50 (ASK1 (Homo sapiens (Human))) for item O=C(c1ccc2c(c1)CN(c1cccc(-c3nncn3C3CC3)n1)C2=O)N1C[C@H]2CC[C@@H](C1)O2 : > 6.70

Reading of pIC50 for COCCC(=O)N1CCc2cc(F)c(C(=O)Nc3cccc(-c4nnnn4C(C)C)n3)cc2C1 with ASK1 (Homo sapiens (Human)): 7.00 to 8.00

----------
Consider the following IC50 data for ASK1 (Homo sapiens (Human)), collected from several reports.

# molecule CC(C)n1cnnc1-c1cccc(NC(=O)c2ccc3c(c2)CN(C(=O)OCc2ccccc2)C3)n1 ; its IC50 = 10 to 100 nM

The recorded IC50 for CCN1CCN(c2ccc3c(c2)C(=O)N(c2cccc(-n4nnnc4C(C)C)n2)C3)CC1=O is 10 to 100 nM

Cc1cc(F)c(C(=O)Nc2cccc(-n3nnnc3C(C)C)n2)cc1-n1cnc(C(F)(F)F)c1 yielded IC50 of 100 to 1000 nM

Measured IC50 of O=C1c2ccccc2CN1c1cccc(-c2nnc3n2CCCC3)n1 : 1000 to 10000 nM

The molecule listed as CC(C)c1nnnn1-c1cccc(NC(=O)c2cc3c(cc2F)CCN(S(=O)(=O)CCC(F)(F)F)C3)n1 has a reported IC50 of > 1000 nM

Note: attention shifts to another entry.
Lab book: IC50 of CCOC(=O)N1CCc2cc(F)c(C(=O)Nc3cccc(-c4nnnn4[C@H](C)CO)n3)cc2C1 noted as 1.25 to 10 nM

----------
// note: pIC50 values for ASK1 (Homo sapiens (Human)) were reported in different studies
pIC50: −log10 of the molar value.

// pIC50 (ASK1 (Homo sapiens (Human))) for CCNS(=O)(=O)N1CCc2cc(F)c(C(=O)Nc3cccc(-c4nnnn4[C@H](C)CO)n3)cc2C1 = 8.00 to 8.90

Entry CC(C)n1nnnc1-c1cccc(NC(=O)c2cc3c(cc2F)CCN(S(=O)(=O)C2CCCC2)C3)n1 under ASK1 (Homo sapiens (Human)) had pIC50 of 7.00 to 8.00

Let me check: CC(C)N1Cc2cnc(C(=O)Nc3cccc(-c4nnnn4[C@H](C)CO)n3)cc2C1=O , system ASK1 (Homo sapiens (Human)), measured pIC50 is 7.00 to 8.00

Per the reported ASK1 (Homo sapiens (Human)) data, COc1cc(C)c(-c2cnn(C)c2)cc1C(=O)Nc1cccc(-n2nnnc2C(C)C)n1 has pIC50 of 8.00 to 9.00

I looked up CN(C)c1cnc(C(=O)Nc2cccc3c2OCCn2nnnc2-3)cc1-n1cnc(C2CC2)c1 and its pIC50 for ASK1 (Homo sapiens (Human)) was 8.16

Observed pIC50, ASK1 (Homo sapiens (Human)), C[C@H](CO)n1nnnc1-c1cccc(NC(=O)c2cc3c(cc2F)CCN(C2CC2)C3)n1 : 7.00 to 8.00

Field pIC50 (ASK1 (Homo sapiens (Human))), entry CC(C)Oc1nc2ccc(C(=O)Nc3cccc(-c4nncn4C(C)C)n3)cc2nc1N1CCOCC1 : 6.00 to 7.00

Attention now shifts to the item below.
Summary: CC(C)n1cnnc1-c1cccc(NC(=O)c2ccc3nc(-c4ccccc4)sc3c2)n1 , ASK1 (Homo sapiens (Human)), pIC50 = 6.00 to 7.00

----------
Listed below are compounds with pIC50 for ASK1 (Homo sapiens (Human)), each taken from published literature.
pIC50: −log10 of the molar value.

Answered cases to consult:
Reading of pIC50 for Cc1cc(F)c(C(=O)Nc2cccc3c2OCC2(CC2)n2cnnc2-3)cc1-n1cnc(C2CC2)c1 with ASK1 (Homo sapiens (Human)): 9.30

Measured pIC50 (ASK1 (Homo sapiens (Human))), entry COc1cc2c(cc1C(=O)Nc1cccc(-c3nnnn3[C@H](C)CO)n1)CN(c1c(N)c(=O)c1=O)CC2 : 8.00 to 8.90

// pIC50 (ASK1 (Homo sapiens (Human))) for C[C@H](CO)n1nnnc1-c1cccc(NC(=O)c2cc3c(cc2F)CCN(C(=O)N(C)CC(F)(F)F)C3)n1 = 7.00 to 8.00

Others:
Param item: Cc1cc(F)c(C(=O)Nc2cccc(-c3nnnn3C(C)C)n2)cc1-c1cccnc1 ; param system: ASK1 (Homo sapiens (Human)); output pIC50: 8.00 to 9.00

----------
Here we gather IC50 data for ASK1 (Homo sapiens (Human), UniProt Q99683) reported by several publications.

Look over these answered cases.
Noted for C=CCOC(=O)N1CCc2ccc(C(=O)Nc3cccc(-c4nncn4C(C)C)n3)cc2C1 : its IC50 reads 10 to 100 nM

Sample O=C1c2sc3ccccc3c2CN1c1cccc(-c2nncn2C2CC2)n1 ; IC50 observed: 200 to 1000 nM

Documented IC50 of Cc1cc(F)c(C(=O)Nc2cccc(-c3nncn3[C@H](C)CO)n2)cc1C1CC1NC(=O)N(C)CCC(F)(F)F (stereo partly drawn) : 1 to 10 nM

Record CCN(C)C(=O)N1CCc2cc(F)c(C(=O)Nc3cccc(-c4nnnn4C(C)C)n3)cc2C1 . Reported IC50: 10 to 100 nM

Further cases:
Value of IC50 reported for the compound CC(C)n1nnnc1-c1cccc(NC(=O)c2cc3sc(N4CCC(C(C)(C)C)CC4)nc3cn2)n1 is > 1000 nM

Documented IC50 of CC(C)n1cnnc1-c1cccc(N2COc3ccc(-c4ccncc4)cc3C2=O)n1 : 9.1 nM

// IC50 lookup, compound = CC(C)n1cnnc1-c1cccc(NC(=O)c2ccc3nc(N4CCC(C)(C)CC4)sc3c2)n1 , result: > 1000 nM

The reported IC50 of the compound Cc1cc(F)c(C(=O)Nc2cccc3c2OC[C@@H](C)n2cnnc2-3)cc1-n1cnc(C2CC2)c1 was 5.8 nM

Briefly, IC50 measured for O=C1c2ccccc2CN1c1nccc(-c2nncn2C2CC2)n1 : 1000 to 10000 nM
